system: Lampyridae; experiment: V max is determined from stimulation of firefly light organ adenylate cyclase; type: functional
Assign Vmax to each entry below.

Some solved cases for reference:
1) CCc1cc(N)cc(CC)c1NC1=NCCN1; 82%
2) CCc1c(Br)c(N)c(Br)c(CC)c1NC1=NCCN1; 24%

# batch: return Vmax for each of the 3 molecules below
1. NCC(O)c1ccc(O)cc1 (stereo not given)
2. CCc1cc(N=[N+]=[N-])cc(CC)c1NC1=NCCN1
3. CN(CCCl)c1cc(Cl)c(NC2=NCCN2)c(Cl)c1

Response:
1: 100%; 2: 100%; 3: 5%

---

Assignment: determine reported Ratio for the given molecules.
experiment: Ratio of (Ka) of octopamine to that of compound; type: ADME
Give bare numbers.

These recorded examples may help you get a feel for the data.
1. CN(CCCl)c1cc(Cl)c(N=C2NCCN2)c(Cl)c1; 6
2. [3H]c1c(CC)c(N=C2NCCN2)c(CC)c([3H])c1N=[N+]=[N-]; 86
3. CCc1cc(N=[N+]=[N-])cc(CC)c1N=C1NCCN1; 70
4. CCc1cccc(CC)c1NC1=NCCN1; 12
5. NCC(O)c1ccc(O)cc1 (configuration not stated) [OCTOPAMINE]; 1

// each listed molecule needs a value for Ratio
1. CCc1cc(N)cc(CC)c1N=C1NCCN1
2. CCc1c(Br)c(N)c(Br)c(CC)c1N=C1NCCN1

Response:
1.3
15

src = ChEMBL document CHEMBL1124635
